# Tested on: 786-O (Renal cancer cell line)
# procedureText: In vitro cell proliferation, Assay Protocol I (CellTiterGlo)
# Format: cell-based
# experimentalConditions: Homo sapiens, 786-0
propertyMeasured: IC50

The reported 786-O (Renal cancer cell line) IC50 of CC1Cc2cc(S(=O)(=O)c3ccc4c(c3)OCCO4)ccc2N1S(C)(=O)=O (stereo not shown) is < 30 µM
